Measured melting point, listed per entry.

In [3]: df
Out[3]:
                                   compound      obs_value
0  CCCC[C@H](NC(=O)OCC1(Cc2ccccc2)CCCC1)C(=O)C(=O)N[C@H](C)c1ccccc1  108 to 110 °C
1  CCCC[C@H](NC(=O)OCC1(Cc2ccccc2)CCC1)C(=O)C(=O)N[C@H](C)c1ccccc1    96 to 98 °C

**Q:** Check the records and state melting point for CCCC[C@H](NC(=O)OCC1(CCCc2ccccc2)CCC1)C(=O)C(=O)N[C@H](C)c1ccccc1
**A:** 91 to 93 °C

**Q:** Check the records and state melting point for CCCC[C@H](NC(=O)OCC1(CCc2ccccc2)CCC1)C(=O)C(=O)N[C@H](C)c1ccccc1
**A:** 86 to 88 °C

###

experimental.target: human cathepsin K (Homo sapiens, UniProt P43235)
Construct: The proform of cathepsin K was converted to mature cathepsin K by brief exposure to pH 4; made in house; host or cells: baculovirus; Trichoplusia ni High Five cells (virus raised in Sf-9)
Sequence (P43235 115-329): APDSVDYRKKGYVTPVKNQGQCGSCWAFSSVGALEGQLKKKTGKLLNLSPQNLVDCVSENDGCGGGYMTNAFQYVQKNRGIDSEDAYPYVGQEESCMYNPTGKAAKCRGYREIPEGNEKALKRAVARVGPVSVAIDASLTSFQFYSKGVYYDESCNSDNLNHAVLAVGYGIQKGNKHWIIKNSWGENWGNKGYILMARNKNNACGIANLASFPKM
assay.protocol: cathepsin K inhibition assay, fluorogenic substrate Cbz-Phe-Arg-AMC, progress curve method
Format: biochemical
condition.parameters: Table 1; human recombinant enzyme, pH 5.5, 30° C., 10 μM substrate; read-out: hcatK Ki
assay.readout: Ki

Answered examples (6):
In [3]: df
Out[3]:
                                   compound                       experimental_target  assay_readout         obs_value
0  CCCC[C@H](NC(=O)OCC1(COc2nc(-c3ccccc3)ns2)CCC1)C(=O)C(=O)N[C@H](C)c1ccccc1  human cathepsin K (Homo sapiens, UniProt P43235)             Ki    0.01 to 0.1 µM
1  CCCC[C@H](NC(=O)OCC1(CCc2ccccc2)CCC1)C(=O)C(=O)N[C@H](C)c1ccccc1  human cathepsin K (Homo sapiens, UniProt P43235)             Ki    0.01 to 0.1 µM
2  CCCC[C@H](NC(=O)OCC1(COc2ccnc(N3CCN(c4ccccc4)CC3)n2)CCC1)C(=O)C(=O)N[C@H](C)c1ccccc1  human cathepsin K (Homo sapiens, UniProt P43235)             Ki    0.01 to 0.1 µM
3  CCCC[C@H](NC(=O)OCC1(COc2ncnc3ccsc23)CCC1)C(=O)C(=O)N[C@H](C)c1ccccc1  human cathepsin K (Homo sapiens, UniProt P43235)             Ki    0.01 to 0.1 µM
4  C[C@@H](NC(=O)C(=O)[C@H](CCCCNC(=O)N1CCOCC1)NC(=O)OCC1(Cc2ccncc2)CCC1)c1ccccc1  human cathepsin K (Homo sapiens, UniProt P43235)             Ki  0.001 to 0.01 µM
5  CCCC[C@H](NC(=O)OCC1(COc2nc(-c3ccc(C)cc3)cs2)CCC1)C(=O)C(=O)N[C@H](C)c1ccccc1  human cathepsin K (Homo sapiens, UniProt P43235)             Ki       0.1 to 1 µM

Now examine the next entry.
**Q:** Check the records and state Ki for CCCC[C@H](NC(=O)OC1(Cc2ccccc2)CCCC1)C(=O)C(=O)N[C@@H](C)C(=O)OCc1ccccc1
**A:** 0.01 to 0.1 µM
